- Protocol notes: NCI Yeast Anticancer Drug Screen. Data for the cln2 rad14 strain (AID 165);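 note: 0% = growth equal to vehicle treated cultures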
- Experimental parameters: S. cerevisiae cln2 rad14 strain, stronger effect = higher value; at 50.0 µM unless noted
The panel holds about 79,000 compounds, 15% with a hit somewhere; the sample as a whole holds those more often.
Measured metric: growth inhibition (%)
Just the number in %, nothing appended.

C(#Cc1ccccc1)CC#Cc1ccccc1: -0.3

Q) Give the value of growth inhibition reported for the following: Oc1cc2c(cc1-c1cc3c(cc1O)OCO3)OCO2
A) -41

Q) Fill in growth inhibition for record COc1cc(-c2cc(=O)c3c(O)c(OC)c(OC)c(OC)c3o2)cc(OC)c1OC
A) -10

Q) Specify reported growth inhibition for the molecule shown: CC(=O)Nc1nc(SCc2ccccc2)c2[nH]cnc2n1
A) -43.5

Q) Give the measured growth inhibition for O=C1CN(C2OC(CO)C(O)C2O)C(=O)NC1=O (stereo not given)
A) -11.2

Q) Supply measured growth inhibition of N#Cc1ccccc1NC(=O)C(=O)c1c(O)c2ccccc2oc1=O in your reply.
A) -16.9

Q) Specify growth inhibition for NC1N=Nc2ccccc21 (stereo not given) and stop.
A) 4.3

Q) # return recorded growth inhibition for entry S=C(NC1CCCCC1)SSSC(=S)NC1CCCCC1
A) 15.2

###

- Protocol notes: NCI Yeast Anticancer Drug Screen. Data for the bub3 strain (AID 167)
- Experimental parameters: S. cerevisiae bub3 mutant strain, stronger effect = higher value; at 50.0 µM unless noted
This is part of a sample that, as a whole, favours compounds with a hit. Of some 79,000 tested, about 15% had one in any assay.
Reported growth inhibition values follow for various compounds
Field: numeric (%). Do not append units.

Q) Please give measured growth inhibition of the following entry: Cn1c2ccccc2c2nnc(NCCCO)nc21
A) 25

Q) State its growth inhibition for this compound: CC(=O)CCCCC(=O)Nc1ccc(CC(NC(=O)OC(C)(C)C)C(=O)NCC(=O)OCc2ccccc2)cc1 (stereo unspecified)
A) 10

Q) Specify reported growth inhibition for the compound shown: CCCCCCCCSC(=N)N
A) 36.1

Q) Give growth inhibition for the following compound: CS1(C)=Nc2c([N+](=O)[O-])cc([N+](=O)[O-])cc2S(=O)(=O)N=1
A) -5

Q) Report growth inhibition, nothing else, for this compound: N#CC(C(=O)/C(=N/Nc1nc(=S)[nH]n1N)C(C#N)c1ccccc1)c1ccccc1 (stereo unspecified)
A) -19.1

Q) Give the reported growth inhibition for this compound. CCOC(=O)C12CCCC1(O)N(NC(=O)OC)C(C)=C2C(=O)OC (stereo unspecified)
A) -5.6

Q) Identify growth inhibition associated with the compound O=C1CSC(c2cc([N+](=O)[O-])ccc2Cl)N1c1nncs1 (stereo unspecified)
A) 21.7

Q) Item C=C1C(=O)C23CC1CCC2C12CO[C@H](O)[C@H]1C(C)(C)[C@H](OC(C)=O)C[C@H]2OC3=O (stereo partly specified) : provide growth inhibition
A) 0.85

Q) Look up growth inhibition of CCCCCC=C(C(=O)OCC)C(=O)OCC and report it.
A) -30.4

Q) Using known records, supply growth inhibition for CC(Nc1ncc2c(n1)-c1ccccc1OC2)C(=O)O (stereo unspecified)
A) -31.4

Q) Determine its reported growth inhibition: CC(=O)OC[C@H](O)[C@@]1(O)CC[C@H]2[C@@H]3CCC4=CC(=O)C=C[C@]4(C)[C@H]3[C@@H](O)C[C@@]21C
A) 41.6
